Target: Recombinant human cathepsin K (Homo sapiens)
Test: Inhibition of cathepsin K activity (Z-Phe-Arg-AMC fluorescence assay)
Conditions: 25 uM Z-Phe-Arg-AMC, pH 5.5, 1 hour at 37° C.
pIC50: −log10 of the molar value. Structures can show the parent of a compound that is named as a salt.
Assay endpoint: pIC50

- Molecule: "CCN(CC)c1ccc(C(=O)NC2(C(=O)NC3CCN(c4ccc(F)cc4S(C)(=O)=O)CC3=O)CCCCC2)cc1 (stereo not shown) [Example 174, hydrochloride]"
  Assay endpoint: "pIC50"
  Observed value: 9.00

P. CS(=O)(=O)c1ccccc1N1CCC(NC(=O)C2(NC(=O)c3ccc(OCCN4CCOCC4)cc3)CCCCC2)C(=O)C1 (stereo not shown) [Example 155]
Q. O=C(NC1(C(=O)NC2CCN(c3ccccc3Br)CC2=O)CCCCC1)c1cc2ccccc2o1 (stereo not shown) [Example 35]
R. CCOC(=O)Nc1ccccc1N1CCC(NC(=O)C2(NC(=O)c3cc4ccccc4o3)CCCCC2)C(=O)C1 (stereo not shown) [Example 48]
Query: // smallest pIC50 at index 0, largest at the end To answer, write out the labels according to the requested order.
Reply: Q, P, R
(Q: 8.63, P: 8.89, R: 9.17)

----------
Target: Recombinant human cathepsin K (Homo sapiens, UniProt P43235)
Sequence (P43235 115-329): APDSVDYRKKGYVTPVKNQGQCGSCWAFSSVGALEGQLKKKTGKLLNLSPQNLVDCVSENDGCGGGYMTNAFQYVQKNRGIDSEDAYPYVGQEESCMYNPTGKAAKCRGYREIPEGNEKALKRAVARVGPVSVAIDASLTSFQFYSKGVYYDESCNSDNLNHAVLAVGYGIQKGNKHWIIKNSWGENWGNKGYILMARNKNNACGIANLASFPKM
Assay: Inhibition of cathepsin K activity (Z-Phe-Arg-AMC fluorescence assay)
Conditions: 25 uM Z-Phe-Arg-AMC, pH 5.5, 1 hour at 37° C.
Assay endpoint: IC50 (nM)

- Molecule: "O=C(NC1(C(=O)NC2CCN(c3ccc(F)cc3N3CCCC3=O)CC2=O)CCCCC1)c1ccc(OCCN2CCOCC2)cc1 (stereo not shown)"
  Assay endpoint: "IC50"
  U: "nM"
  Observed value: 1.69
- Molecule: "O=C(NC1(C(=O)NC2CCN(c3ccccc3N3CCCS3(=O)=O)CC2=O)CCCCC1)c1cc2ccccc2o1 (stereo not shown)"
  Assay endpoint: "IC50"
  U: "nM"
  Observed value: 0.51
- Molecule: "CC1(C)CN(c2cc(F)ccc2N2CCC(NC(=O)C3(NC(=O)c4ccco4)CCCCC3)C(=O)C2)C1=O (stereo not shown)"
  Assay endpoint: "IC50"
  U: "nM"
  Observed value: 1.45
- Molecule: "O=C(NC1(C(=O)NC2CCN(c3ccccc3-c3nnn[nH]3)CC2=O)CCCCC1)c1cc2ccccc2o1 (stereo not shown)"
  Assay endpoint: "IC50"
  U: "nM"
  Observed value: 4.77
- Molecule: "N#Cc1ccc(N2CCC(NC(=O)C3(NC(=O)c4cc5ccccc5o4)CCCCC3)C(=O)C2)cc1 (stereo not shown)"
  Assay endpoint: "IC50"
  U: "nM"
  Observed value: 6.24

a. O=C(NC1(C(=O)NC2CCN(c3ccccc3[N+](=O)[O-])CC2=O)CCCCC1)c1ccc2ccccc2n1 (stereo not shown)
b. CS(=O)(=O)c1ccccc1N1CCC(NC(=O)C2(NC(=O)c3ccco3)CCCCC2)C(=O)C1 (stereo not shown)
Query: Pick one: a or b . Which one has the lower reported IC50? Respond using the label that marks the chosen record.
Reply: a

----------
Molecular target: Recombinant human Cathepsin S (Homo sapiens, UniProt P25774)
Sequence (P25774 115-331): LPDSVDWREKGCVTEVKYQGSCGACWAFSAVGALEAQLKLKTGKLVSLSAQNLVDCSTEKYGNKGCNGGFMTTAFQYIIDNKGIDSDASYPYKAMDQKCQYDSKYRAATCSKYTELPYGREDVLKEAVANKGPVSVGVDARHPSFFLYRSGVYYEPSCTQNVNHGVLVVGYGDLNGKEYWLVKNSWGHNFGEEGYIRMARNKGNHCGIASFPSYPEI
Test: Selectivity study: cathepsin S (Z-Val-Val-AMC)
Type: biochemical
Conditions: 30 minutes at 37° C., read-out: Cathepsins (IC50, nM) S
Assay endpoint: IC50 (nM)

A selection of reference data follows.
- Compound: "COc1ccc(N2CCC(NC(=O)C3(NC(=O)c4ccc(F)cc4)CCCCC3)C(=O)C2)c(S(C)(=O)=O)c1 (stereo not drawn) [Example 148]"
  Observed value: 141
- Compound: "CS(=O)(=O)c1cc(F)ccc1N1CCC(NC(=O)C2(NC(=O)c3ccco3)CCCCC2)C(=O)C1 (stereo not drawn) [Example 83]"
  Observed value: 177

A. O=C(NC1(C(=O)NC2CCN(c3ccc(F)cc3N3CCC3=O)CC2=O)CCCCC1)c1ccco1 (stereo not drawn) [Example 94]
B. CS(=O)(=O)c1ccccc1N1CCC(NC(=O)C2(NC(=O)c3cc4ccccc4o3)CCCCC2)C(=O)C1 (stereo not drawn) [Example 1]
Query: Pick one: A or B . Which one has the lower reported IC50? Respond using the label that marks the chosen record.
Reply: B
